assay: Visual observation at 0° C. after 7 days (CIPAC MT39 test); format: physicochemical; parameters: key: Crystal: When the formation of active crystals is observed, the term of <> is indicated; Limpid: When the solution remains limpid (absence of solid or cloudiness), it is the term of <> which is indicated; details: active Propanil 36% EC in the compound as solvent; 7 days at 0° C.
measure.name: Aspect at 0° C.

compound="CCOC(=O)C(=O)N(C)C [Compound 2, ethyl 2-(dimethylamino)-2-oxoacetate]" measure_name="Aspect at 0° C." test_value=Limpid
compound="CCCCC(CC)COC(=O)C(=O)N(C)C (stereo not shown) [Compound 3]" measure_name="Aspect at 0° C." test_value=Limpid
compound="COC(=O)C(=O)N(C)C [Compound 1, methyl 2-(dimethylamino)-2-oxoacetate]" measure_name="Aspect at 0° C." test_value=Limpid

----------
assay: Visual observation at 0° C. after 7 days (CIPAC MT39 test); type: physicochemical; parameters: key: Crystal: When the formation of active crystals is observed, the term of <> is indicated; Limpid: When the solution remains limpid (absence of solid or cloudiness), it is the term of <> which is indicated; settings: active Difenconazole 25% EC in the compound as solvent; 7 days at 0° C.
measure.name: Aspect at 0° C.

compound="CCOC(=O)C(=O)N(C)C [Compound 2, ethyl 2-(dimethylamino)-2-oxoacetate]" test_value=Limpid
compound="CCCCCCCCCCOC(=O)C(=O)N(C)C [Compound 4, n-decyl 2-(dimethylamino)-2-oxoacetate]" test_value=Limpid
compound="COC(=O)C(=O)N(C)C [Compound 1, methyl 2-(dimethylamino)-2-oxoacetate]" test_value=Limpid
compound="CCCCC(CC)COC(=O)C(=O)N(C)C (stereo not shown)" test_value=Limpid

----------
test: Visual observation at 0° C. after 7 days (CIPAC MT39 test); type: physicochemical; design: key: Crystal: When the formation of active crystals is observed, the term of <> is indicated; Limpid: When the solution remains limpid (absence of solid or cloudiness), it is the term of <> which is indicated; conditions: active Trifluralin 40% EC in the compound as solvent; 7 days at 0° C.
measure.name: Aspect at 0° C.

compound="CCCCCCCCCCOC(=O)C(=O)N(C)C [Compound 4, n-decyl 2-(dimethylamino)-2-oxoacetate]" test_value=Limpid
compound="CCCCC(CC)COC(=O)C(=O)N(C)C (stereo not shown)" test_value=Limpid
compound="CCOC(=O)C(=O)N(C)C [Compound 2, ethyl 2-(dimethylamino)-2-oxoacetate]" test_value=Limpid

----------
Test: Visual observation at 25° C. of formulation of active in solvent
Type: physicochemical
Design: key: Crystal: When the formation of active crystals is observed, the term of <> is indicated; Limpid: When the solution remains limpid (absence of solid or cloudiness), it is the term of <> which is indicated
Details: active Oxyfluorfen 22% EC in the compound as solvent
Method: Formulations were made by diluting various actives, reported below in the table, in the compounds 1-4 synthesized above. 1) Visual observation at 25° C. The aspect of the formulation is noted and the presence of crystals is possibly located. The actives used are commercially available.
measure.name: Aspect at 25° C.

molecule="CCCCC(CC)COC(=O)C(=O)N(C)C (stereo not shown)" test_value=Limpid
molecule="CCOC(=O)C(=O)N(C)C [Compound 2, ethyl 2-(dimethylamino)-2-oxoacetate]" test_value=Limpid
molecule="CCCCCCCCCCOC(=O)C(=O)N(C)C [Compound 4, n-decyl 2-(dimethylamino)-2-oxoacetate]" test_value=Limpid
molecule="COC(=O)C(=O)N(C)C [Compound 1, methyl 2-(dimethylamino)-2-oxoacetate]" test_value=Limpid

----------
experiment: Visual observation at 0° C. after 7 days (CIPAC MT39 test); format: physicochemical; set-up: key: Crystal: When the formation of active crystals is observed, the term of <> is indicated; Limpid: When the solution remains limpid (absence of solid or cloudiness), it is the term of <> which is indicated; settings: active Oxyfluorfen 22% EC in the compound as solvent; 7 days at 0° C.
measure.name: Aspect at 0° C.

compound="CCCCCCCCCCOC(=O)C(=O)N(C)C [Compound 4, n-decyl 2-(dimethylamino)-2-oxoacetate]" test_value=Crystal
compound="COC(=O)C(=O)N(C)C [Compound 1, methyl 2-(dimethylamino)-2-oxoacetate]" test_value=Crystal
compound="CCOC(=O)C(=O)N(C)C [Compound 2, ethyl 2-(dimethylamino)-2-oxoacetate]" test_value=Limpid
compound="CCCCC(CC)COC(=O)C(=O)N(C)C (stereo not shown)" test_value=Limpid
